Assay: probe aNOTCH3 binding on compound microarray – biochemical, small-molecule microarray, 635/667 nm fluorescence, primary screen (AID 1120);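 also: probe is a biotin-tagged antibody raised against NOTCH3 rather than NOTCH3 protein; score merges spot fluorescence near 667 nm with spot signal to noise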
Details: higher = more signal
Hi all, reminder that labels come from composite z-score, split as bin 0 = under -0.06, bin 1 = from -0.06 up to 0.1, bin 2 = 0.1 and over

{"columns": ["compound", "category"],
 "data": [
  ["CCCCCCC#C[Si](O[C@H](c1ccccc1)c1cn(Cc2cccc(Cl)c2)nn1)(C(C)C)C(C)C", "bin 0"],
  ["CC(C)(C)OC(=O)CC[C@]1(C(=O)N2CCCCC2)N=C(c2ccc(OCCCO)cc2)O[C@H]1c1ccccc1CN=[N+]=[N-]", "bin 2"],
  ["Cc1ccc(C(C)CC(O)C2C=CC3C(=O)N(Cc4ccccc4)C(=O)C3N2n2cnnc2)o1 (stereo unspecified)", "bin 2"],
  ["O=C(C=C(CC(O)c1cccc(Cl)c1)OCCF)OCCF (stereo unspecified)", "bin 0"],
  ["COC(=O)c1c(CC[C@@H](CO)NC(=O)N[C@@H](C)Cn2cc(C3(O)CCCC3)nn2)oc(C(C)=O)c1C(=O)OC", "bin 2"],
  ["[N-]=[N+]=NCc1ccccc1[C@H]1OC(c2ccc(OCCCO)cc2)=N[C@@]1(Cc1ccccc1N=[N+]=[N-])C(=O)N1CCCCC1", "bin 2"],
  ["CCCC[C@@H](O)C1=C(COc2ccccc2)Cn2c(=O)n(-c3ccccc3)c(=O)n2[C@H]1CO", "bin 0"],
  ["COCCOC(=O)N1C(=O)[C@@]2(c3ccccc31)[C@H](c1ccccc1OCCO)N1[C@H](c3ccccc3)[C@H](c3ccccc3)OC(=O)[C@H]1[C@@H]2C(=O)N1CCc2cc(OC)c(OC)cc2C1", "bin 1"],
  ["CCCCCCCCCCC(O)C1C=CC2C(=O)NC(=O)C2N1Nc1ccccn1 (stereo unspecified)", "bin 1"],
  ["CC(C)[Si](C#C[Si](C(C)C)(C(C)C)C(C)C)(O[C@H](C)c1cn(Cc2cccc(Cl)c2)nn1)C(C)C", "bin 0"],
  ["C=C(COC)C(=O)CC[C@H](OC(=O)c1ccccc1-c1ccccc1C(=O)O)c1ccc(OCCO)cc1", "bin 1"],
  ["OCc1ccc(-c2cc[n+](Cc3cccc(OC(F)(F)F)c3)cc2)cc1", "bin 2"],
  ["CCC[C@@H]1C[C@@]1(CCC)[C@@H](NC(=O)c1cccs1)c1ccc(Cl)cc1", "bin 0"],
  ["Cc1ccc(-c2cccc(=O)o2)cc1", "bin 0"],
  ["O=C1O[C@H](c2ccccc2)[C@H](c2ccccc2)N2[C@H]1[C@@H](C(=O)N1CCCCCCC1)[C@]1(C(=O)Nc3ccc(C#CCCO)cc31)[C@H]2c1ccc(OCCO)cc1", "bin 2"],
  ["NC(=O)NCC#Cc1ccc2c(c1)[C@]1(C(=O)N2)[C@H](c2ccc(O)cc2)N2[C@H](c3ccccc3)[C@H](c3ccccc3)OC(=O)[C@H]2[C@@H]1C(=O)NC[C@H](O)c1ccccc1", "bin 0"]
]}

Taken from PubChem BioAssay.
